Data origin: patent US12404260B2

# Tested on: secretion of IL6 by OCI-LY3 ABC-DLBCL cells
# experiment description: Human IL6 Mesoscale assay (OCI-LY3)
# Format: cell-based
# conditions: 24 h incubation, IL6 in supernatant
For each of the compounds below, state its pIC50.
Give bare numbers, as −log10 of the molar value.

Solved cases (4 shown):
{"compound": "CO[C@@H](C)c1c(NC(=O)Nc2cnc(OC(F)F)c(Cl)c2)cnc(C)c1Cl [Co. 73]", "pIC50": 6.96}
{"compound": "CCOC(=O)COc1cncc(NC(=O)Nc2cnc(-n3nccn3)c(Cl)c2)c1C(C)OC (racemic) [Co. 14]", "pIC50": 4.96}
{"compound": "CO[C@@H](C)c1c(NC(=O)Nc2cnc(-n3nccn3)c(Cl)c2)cnc(N)c1Br [Co. 118]", "pIC50": 5.56}
{"compound": "COc1cncc(NC(=O)Nc2cnc(-n3nccn3)c(C(F)(F)F)c2)c1[C@H](C)OC [Co. 125]", "pIC50": 5.34}

Hi team, please reply with pIC50 for each item in this list.
1. CO[C@H](C)c1c(NC(=O)Nc2cc(Cl)c(-n3nccn3)nc2C)cnc(C)c1C#N [Co. 88]
2. CO[C@H](C)c1c(NC(=O)Nc2cnc(C3CC3)c(C(F)(F)F)c2)cnc(C)c1Cl [Co. 67]
3. CCOC(=O)c1cncc(NC(=O)Nc2cnc(-n3nccn3)c(Cl)c2)c1[C@H](C)OC [Co. 37]

A:
1: 6.54; 2: 5.38; 3: 5.56
